Task for the reader: assign each of the following compounds its reported pest or weed control at 200 ppm.
# Test system: Puccinia recondita f. sp. tritici
# Experiment notes: Puccinia recondita f. sp. tritici/Wheat/Leaf Disc Curative (Brown Rust)
# Format: in vivo
# Measurement conditions: foliar, wheat leaf disc curative, compared to untreated control

In the examples that follow, each entry is paired with its recorded pest or weed control at 200 ppm.
[
  {
    "Compound": "CO/C=C(\\Oc1cc(-n2ccc(C3CCCCC3)n2)ccc1C)C(=O)OC [Compound E-36]",
    "System name": "Puccinia recondita f. sp. tritici",
    "Measured value": "≥ 80%"
  },
  {
    "Compound": "CO/C=C(\\Oc1cc(-n2ccc(COC)n2)ccc1C)C(=O)OC [Compound E-77]",
    "System name": "Puccinia recondita f. sp. tritici",
    "Measured value": "≥ 80%"
  }
]

Switching to the query record.
Q: Could you share what pest or weed control at 200 ppm was measured for CO/C=C(\Oc1cc(-n2ccc(C(C)(C)C)n2)ccc1C)C(=O)OC [Compound E-103] , tested on Puccinia recondita f. sp. tritici?
Ans: ≥ 80%

====

Task for the reader: assign each of the following compounds its reported % Parent Remaining @ 3 hrs.
# Experiment notes: Photostability assay (Atlas Suntest)
# Type: physicochemical
# Measurement conditions: Suntest 750 W/m^2, spotted on microscope slides
One number for each entry, in %.

In the examples that follow, each entry is paired with its recorded % Parent Remaining @ 3 hrs.
[
  {
    "Compound": "CO/C=C(\\Oc1cc(-n2ccc(C(C)C)n2)ccc1C)C(=O)OC",
    "% Parent Remaining @ 3 hrs / %": 33
  },
  {
    "Compound": "CO/C=C(\\Oc1cc(-n2ccc(C3CCC3)n2)ccc1C)C(=O)OC",
    "% Parent Remaining @ 3 hrs / %": 34
  },
  {
    "Compound": "CO/C=C(\\Oc1cc(-n2ccc(OC(C)C)n2)ccc1C)C(=O)OC",
    "% Parent Remaining @ 3 hrs / %": 25
  }
]

For each listed entry, give its % Parent Remaining @ 3 hrs.
1. CCC(C)c1ccn(-c2ccc(C)c(O/C(=C\OC)C(=O)OC)c2)n1 (stereo not drawn)
2. CO/C=C(\Oc1cc(-n2ccc(C3CC3)n2)ccc1C)C(=O)OC
3. CO/C=C(\Oc1cc(-n2ccc(C(F)(F)F)n2)c(F)cc1C)C(=O)OC
4. CO/C=C(\Oc1cc(-n2ccc(C(C)(F)F)n2)ccc1C)C(=O)OC
5. CO/C=C(\Oc1cc(-n2ccc(C3(F)CC3)n2)ccc1C)C(=O)OC
6. CCCc1ccn(-c2ccc(C)c(O/C(=C\OC)C(=O)OC)c2)n1

Ans:
1. 69
2. 38
3. 24
4. 40
5. 37
6. 65

====

# Test system: Phakopsora pachyrhizi
# Experiment notes: Phakopsora pachyrhizi/Soybean/Preventative (Soybean Rust)
# Assay type: in vivo
# Measurement conditions: 288 h, Phakopsora pachyrhizi (Soybean rust), 6 ppm
Task for the reader: assign each of the following compounds its reported pest or weed control at 6 ppm.

[
  {
    "Compound": "CO/C=C(\\Oc1cc(-n2ccc(C(C)C)n2)ccc1C)C(=O)OC",
    "pest or weed control at 6 ppm": "35%"
  }
]

For each listed entry, give its pest or weed control at 6 ppm.
1. CO/C=C(\Oc1cc(-n2cccc2)ccc1C)C(=O)OC [Compound X-2, reference compound]
2. CCCc1cnn(-c2ccc(C)c(O/C(=C\OC)C(=O)OC)c2)n1
3. CO/C=C(\Oc1cc(-n2ccc(C(F)(F)F)n2)ccc1C)C(=O)OC
4. CCCc1ccn(-c2ccc(C)c(O/C(=C\OC)C(=O)OC)c2)n1
5. CO/C=C(\Oc1cc(-c2cccc(C(F)(F)F)n2)ccc1C)C(=O)OC [Compound X-3, reference compound]

Ans:
1. 0%
2. 50%
3. 20%
4. 90%
5. 0%

For each listed entry, give its pest or weed control at 6 ppm.
1. CO/C=C(\Oc1cccc(-n2cccc2)c1)C(=O)OC [Compound X-1, reference compound]
2. CO/C=C(\Oc1cc(-n2ncc(C(F)(F)F)n2)ccc1C)C(=O)OC

Ans:
["0%", "20%"]

====

# Test system: Phaeosphaeria nodorum (Septoria nodorum)
# Experiment notes: Phaeosphaeria nodorum (Septoria nodorum)/Wheat/Leaf Disc Preventative (Glume Blotch)
# Type: in vivo
# Measurement conditions: Parastagonospora nodorum, foliar, wheat leaf disc preventative, compared to untreated control
Measurement type: pest or weed control at 200 ppm

[
  {
    "Structure as smiles": "CO/C=C(\\Oc1cc(-n2cc(C)cn2)ccc1C)C(=O)OC",
    "System name": "Phaeosphaeria nodorum (Septoria nodorum)",
    "Measurement type": "pest or weed control at 200 ppm",
    "Measured value": "≥ 80%"
  },
  {
    "Structure as smiles": "CO/C=C(\\Oc1cc(-n2cc(Cl)c(C3CCCCC3)n2)ccc1C)C(=O)OC",
    "System name": "Phaeosphaeria nodorum (Septoria nodorum)",
    "Measurement type": "pest or weed control at 200 ppm",
    "Measured value": "≥ 80%"
  }
]

For each listed entry, give its pest or weed control at 200 ppm.
1. CO/C=C(\Oc1cc(-n2ccc(C3CC3)n2)ccc1Cl)C(=O)OC
2. CCCCc1cnn(-c2ccc(C)c(O/C(=C\OC)C(=O)OC)c2)n1
3. CO/C=C(\Oc1cc(-n2cc(Cl)cn2)ccc1C)C(=O)OC
4. CO/C=C(\Oc1cc(-n2ccc(C)n2)ccc1C)C(=O)OC
5. CO/C=C(\Oc1cc(-n2ccc(Cl)n2)ccc1C)C(=O)OC
6. CO/C=C(\Oc1cc(-n2ccc(Br)n2)ccc1C)C(=O)OC
7. C=Cc1ccn(-c2ccc(C)c(O/C(=C\OC)C(=O)OC)c2)n1
8. CO/C=C(\Oc1cc(-n2ccc(OC(F)F)n2)ccc1C)C(=O)OC

Ans:
["≥ 80%", "≥ 80%", "≥ 80%", "≥ 80%", "≥ 80%", "≥ 80%", "≥ 80%", "≥ 80%"]

For each listed entry, give its pest or weed control at 200 ppm.
1. CO/C=C(\Oc1cc(-n2ncc(C3CC3)n2)ccc1C)C(=O)OC
2. CO/C=C(\Oc1cc(-n2ccc(OC(C)C)n2)ccc1C)C(=O)OC
3. CO/C=C(\Oc1cc(-n2ccc(C3CCCCC3)n2)cc(C)c1C)C(=O)OC
4. CO/C=C(\Oc1cc(-n2cc(C)c(C3CCCCC3)n2)ccc1C)C(=O)OC

Ans:
1. ≥ 80%
2. ≥ 80%
3. ≥ 80%
4. ≥ 80%

For each listed entry, give its pest or weed control at 200 ppm.
1. CCON=C(C)c1cnn(-c2ccc(C)c(O/C(=C\OC)C(=O)OC)c2)n1
2. CO/C=C(\Oc1cc(-n2ccc(C3(F)CC3)n2)ccc1C)C(=O)OC
3. CO/C=C(\Oc1cc(-n2ccc(C#CC3CC3)n2)ccc1C)C(=O)OC
4. CO/C=C(\Oc1cc(-n2ccc(C(C)C)n2)c(Cl)cc1C)C(=O)OC

Ans:
1. ≥ 80%
2. ≥ 80%
3. ≥ 80%
4. ≥ 80%

====

Task for the reader: assign each of the following compounds its reported pest or weed control at 200 ppm.
# Test system: Blumeria graminis f. sp. tritici (Erysiphe graminis f. sp. tritici)
# Experiment notes: Blumeria graminis f. sp. tritici/Wheat/Leaf Disc Preventative (Powdery Mildew on Wheat)
# Format: in vivo
# Measurement conditions: foliar, wheat leaf disc preventative, compared to untreated control

[
  {
    "Structure as smiles": "CO/C=C(\\Oc1cc(-n2ncc(C(C)C)n2)ccc1C)C(=O)OC",
    "System name": "Blumeria graminis f. sp. tritici (Erysiphe graminis f. sp. tritici)",
    "pest or weed control at 200 ppm": "≥ 80%"
  },
  {
    "Structure as smiles": "CO/C=C(\\Oc1cc(-n2ccc(OC(C)C)n2)ccc1C)C(=O)OC",
    "System name": "Blumeria graminis f. sp. tritici (Erysiphe graminis f. sp. tritici)",
    "pest or weed control at 200 ppm": "≥ 80%"
  },
  {
    "Structure as smiles": "CO/C=C(\\Oc1cc(-n2ccc(C3CCC3)n2)c(F)cc1C)C(=O)OC",
    "System name": "Blumeria graminis f. sp. tritici (Erysiphe graminis f. sp. tritici)",
    "pest or weed control at 200 ppm": "≥ 80%"
  },
  {
    "Structure as smiles": "CO/C=C(\\Oc1cc(-n2ccc(C(F)(F)Cl)n2)ccc1C)C(=O)OC",
    "System name": "Blumeria graminis f. sp. tritici (Erysiphe graminis f. sp. tritici)",
    "pest or weed control at 200 ppm": "≥ 80%"
  },
  {
    "Structure as smiles": "CO/C=C(\\Oc1cc(-n2ccc(Br)n2)ccc1Br)C(=O)OC",
    "System name": "Blumeria graminis f. sp. tritici (Erysiphe graminis f. sp. tritici)",
    "pest or weed control at 200 ppm": "≥ 80%"
  }
]

For each listed entry, give its pest or weed control at 200 ppm.
1. CO/C=C(\Oc1cc(-n2cc(C3CCCC3)cn2)ccc1C)C(=O)OC
2. CO/C=C(\Oc1cc(-n2ccc(C(F)(F)F)n2)c(F)cc1C)C(=O)OC

Ans:
≥ 80%
≥ 80%

For each listed entry, give its pest or weed control at 200 ppm.
1. CO/C=C(\Oc1cc(-n2ccc(COC)n2)ccc1C)C(=O)OC
2. CO/C=C(\Oc1cc(-n2cc(COC)cn2)ccc1C)C(=O)OC
3. CO/C=C(\Oc1cccc(-n2ncc(C3CC3)n2)c1)C(=O)OC
4. CO/C=C(\Oc1cc(-n2ncc(C3CCCC3)n2)ccc1C)C(=O)OC
5. CO/C=C(\Oc1cc(-n2ccc(C3CC3)n2)ccc1Cl)C(=O)OC

Ans:
["≥ 80%", "≥ 80%", "≥ 80%", "≥ 80%", "≥ 80%"]

Attribution: patent US12043600B2
